// reported IC50 for each item listed
# TARGET_OF_ASSAY: ^3 H-5-hydroxytryptamine (serotonin) uptake in cortical synaptosomes (Rattus norvegicus)
# Construct: Cerebral cortices from male Wistar rats (150-200 g) are homogenized
# Sequence (P31652 whole entry): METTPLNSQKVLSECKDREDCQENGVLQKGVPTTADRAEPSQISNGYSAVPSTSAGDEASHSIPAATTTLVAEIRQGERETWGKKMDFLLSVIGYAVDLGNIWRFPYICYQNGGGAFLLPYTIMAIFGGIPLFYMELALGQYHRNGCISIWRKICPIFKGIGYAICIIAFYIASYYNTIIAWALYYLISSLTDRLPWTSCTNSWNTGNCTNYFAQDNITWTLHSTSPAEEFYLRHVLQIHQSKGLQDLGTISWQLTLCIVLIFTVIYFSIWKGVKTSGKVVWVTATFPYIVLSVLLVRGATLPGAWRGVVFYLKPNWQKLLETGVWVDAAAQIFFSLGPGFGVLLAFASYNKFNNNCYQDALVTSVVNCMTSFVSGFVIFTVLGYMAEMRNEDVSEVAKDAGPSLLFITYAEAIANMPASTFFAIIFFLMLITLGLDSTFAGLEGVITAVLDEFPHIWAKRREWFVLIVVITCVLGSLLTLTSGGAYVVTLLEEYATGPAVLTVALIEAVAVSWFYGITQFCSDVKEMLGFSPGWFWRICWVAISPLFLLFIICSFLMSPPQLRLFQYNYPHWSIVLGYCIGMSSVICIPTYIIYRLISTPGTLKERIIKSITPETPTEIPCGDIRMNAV
# ASSAY_SUMMARY: In vitro inhibition of 3H-5-hydroxytryptamine (3H-5-HT, serotonin) uptake in cortical synaptosomes
# COND: 3H-5-HT 1 nM, 30 min at 37° C.
TEST_READOUT: IC50 (nM)

In [3]: df
Out[3]:
                                   molecule  test_readout  assay_value
0  O=C1CN2[C@H]3CC[C@@H]2[C@@H]1[C@@H](c1ccc(Cl)c(Cl)c1)C3          IC50          2.6
1  CON=C1CCN2[C@H]3CC[C@@H]2[C@@H]1[C@@H](c1ccc(Cl)c(Cl)c1)C3          IC50          3.3
2  OC1CN2[C@H]3CC[C@@H]2[C@@H]1[C@@H](c1ccc(Cl)c(Cl)c1)C3 (stereo partly drawn)          IC50          1.8
